measured-target: Microtubule-associated protein tau (Homo sapiens) (UniProt P10636)
Sequence (P10636 561-689 P618L limits assumed): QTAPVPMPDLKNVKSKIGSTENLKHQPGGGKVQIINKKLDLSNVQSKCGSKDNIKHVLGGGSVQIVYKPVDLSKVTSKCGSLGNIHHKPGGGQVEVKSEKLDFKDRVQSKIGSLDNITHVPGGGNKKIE
protocol: qHTS for Inhibitors of Tau Fibril Formation, Fluorescence Polarization; further: nearly all actives have a fitted effect of over 55% in size
condition-summary: K18 P301L tau heparin fibrillization, Alexa594 FP, 6 h; series mostly up to 57.7 µM
In all, about 280,000 compounds went through this assay and about 1,100 (0.39%) were called active. Another 7% or so got no clear call; they are omitted. The call rests on the fitted dose curve; in most records, active means well fitted inhibition curve with a large enough effect; inconclusive means small, poorly fitted or top-dose-only effect, or effect the other way; inactive means flat fitted curve, though single readings scatter. The list comes from a sample in which actives are over-represented; it also holds close analogues and randomly drawn compounds.
Labels: 1 for active, -1 for inactive

compound | label
COc1ccc(-n2c(SCC(N)=O)nc3c(oc4ccccc43)c2=O)cc1 | -1
Cc1ccc2nc(N3CCN(c4cccc(Cl)c4)CC3)c3nnnn3c2c1 | -1
Cc1ccc(C(=O)N2c3ncnn3C3(CCCCC3)[C@@H]3CCCC[C@@H]32)cc1 | -1
COc1ccc(/C=C2\SC(=S)N(CC(=O)NNC(=O)c3ccncc3)C2=O)cc1 | -1
Cc1c(Cl)cccc1-c1ccc(CNCCCSc2nnnn2C)o1 | -1
Cc1ccc2oc3c(c(=O)c2c1)C(c1ccc([N+](=O)[O-])cc1)N(CCCN1CCOCC1)C3=O (stereo unspecified) | -1
COc1ccc(-c2nc(SCC(=O)N3CCCCC3C)n[nH]2)cc1 (stereo unspecified) | -1
COC(=O)c1c(NC(=O)C(C)Oc2ccc(Cl)c(C)c2)sc(C)c1C (stereo unspecified) | -1
O=C(Nc1ccc(-c2nc3cc(NC(=O)c4ccccc4Cl)ccc3o2)cc1)c1ccccc1Cl | -1
Cc1cc(C)c(NC(=O)Cn2c(SCC(=O)NCc3ccccc3)nc3ccccc32)c(C)c1 | -1
O=C(Nc1ccc2ccccc2c1)Nc1ccc2snnc2c1 | 1
O=C(CCCN1C(=O)/C(=C/c2ccccc2)SC1=S)Nc1ccc(O)cc1 | -1
Cc1ccc(CNS(=O)(=O)c2ccc(C(=O)N(C)C)s2)cc1 | -1
Cc1cc(C)c2oc(C(=O)Nc3ccc(S(=O)(=O)N(C)c4ccccc4)cc3)cc(=O)c2c1 | -1
CCOc1ccc(Nc2ncnc3scc(-c4ccc(OC)cc4)c23)cc1 | -1
O=C(Nc1ccccc1)Nc1nc2ccccc2s1 | -1
CCOC(=O)C1CCCN(C(=O)c2ccc(-n3ccc4ccccc43)s2)C1 (stereo unspecified) | -1
CCC(=O)N1CCc2cc(CNC(=O)Nc3ccccc3Cl)ccc21 | -1
O=C(CCN1C(=O)/C(=C/c2cccs2)SC1=S)NNC(=O)c1cccc(O)c1 | 1
CCc1ccccc1NC(=O)N1CCN(C(=O)c2nsc3ccccc23)CC1 | -1
COc1ccc(OC)c(-c2noc(N3CCN(c4cc(Cl)ccc4C)CC3)n2)c1 | -1

###

measured-target: Microtubule-associated protein tau (Homo sapiens) (UniProt P10636)
protocol: qHTS for Inhibitors of Tau Fibril Formation, Fluorescence Polarization; further: nearly all actives have a fitted effect of over 55% in size; further: potency means the concentration at half of the fitted maximal effect
condition-summary: K18 P301L tau heparin fibrillization, Alexa594 FP, 6 h; series mostly up to 57.7 µM
Screen size: about 280,000 compounds; about 1,100 (0.39%) were called active. Inconclusive results (about 7%) are left out. Only a selection was taken, and actives are over-represented in it overall.

smiles-entry | Potency
CCOC(=O)c1ccc(NC(=O)CSc2nc3c([nH]c4ccccc43)c(=O)n2C)cc1 | inactive
Cc1ccc(S(=O)(=O)c2ccc(Oc3ccccc3)cc2)cc1 | inactive
COc1ccc2c(c1)c(N1CCCC1=O)c(C(=O)Nc1ccccc1C(F)(F)F)n2C | inactive
CC1=C/C(=N\OS(=O)(=O)c2ccccc2)C=CC1=O | 12.6 µM (active)
CC1=C/C(=N\S(=O)(=O)c2ccccc2)C(C(C)C)=CC1=O | inactive
